Biological target: human VPAC1 (Homo sapiens, UniProt P32241)
Construct: expressed in transfected cells
Sequence (P32241 31-457): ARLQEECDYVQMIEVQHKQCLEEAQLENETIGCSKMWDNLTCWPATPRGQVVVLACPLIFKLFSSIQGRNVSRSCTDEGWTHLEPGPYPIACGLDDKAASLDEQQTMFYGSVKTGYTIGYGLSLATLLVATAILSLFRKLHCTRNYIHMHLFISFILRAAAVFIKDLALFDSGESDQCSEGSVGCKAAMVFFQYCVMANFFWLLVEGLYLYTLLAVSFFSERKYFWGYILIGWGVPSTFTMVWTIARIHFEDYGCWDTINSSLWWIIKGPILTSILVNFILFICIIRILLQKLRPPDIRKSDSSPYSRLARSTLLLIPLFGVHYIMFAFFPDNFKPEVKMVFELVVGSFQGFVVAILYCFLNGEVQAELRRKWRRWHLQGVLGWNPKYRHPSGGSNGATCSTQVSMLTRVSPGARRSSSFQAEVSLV
Test: Filter binding assay, 125I-labeled VIP tracer
Conditions: membranes from cells transiently transfected with human VPAC1; read-out: Human receptor binding IC50 VPAC1
Description: In order to prepare the filter plates, the presoak solution is aspirated by vacuum filtration. The plates are flushed twice with 200 μL flush buffer. 200 μL blocking buffer is added to the filter plate. The filter plate is then incubated with 200 μL presoak solution for 1 hour at room temperature. The assay plate is filled with 25 μL assay buffer, 25 μL membranes (2.5 μg) suspended in assay buffer, 25 μL compound (agonist) in assay buffer, and 25 μL tracer (about 40000 cpm) in assay buffer. […]
Square brackets hold non-standard residues; d marks the D form. Ends that are not written are not given here. Nle = CCCC[C@H](N)C(=O)O; Orn = NCCC[C@H](N)C(=O)O; Aib = CC(C)(N)C(=O)O
property.label: IC50

Summary for this substance, P348: cyclic PEGylated VPAC2 receptor peptide agonist (HSDAVFTENYTKLR[Aib]Q[Nle]AAKKYLNDLK[Aib]KGGPSSGAPPPC; not fully specified (residue 40); ends and bridges not checked; also: cyclic, bridge type and places not given here, PEGylated, site not placed) [Agonist P348] : IC50 is > 1.5 µM

P257: cyclic PEGylated VPAC2 receptor peptide agonist (HSDAVFTENYTKL[Aib]KQ[Nle]AAKKYLNDLKKGGPSSGAPPPC; not fully specified (residue 39); ends and bridges not checked; also: cyclic, bridge type and places not given here, PEGylated, site not placed) [Agonist P257] has a reported IC50 of > 25 µM

Memo: P376: cyclic PEGylated VPAC2 receptor peptide agonist (HSDAVFTENYT[Orn]LR[Aib]Q[Nle]AA[Orn]KYLNDL[Orn][Orn]GGPSSGAPPPC; also: cyclic, bridge type and places not given here, PEGylated, site not placed) [Agonist P376] , reported IC50: > 3 µM

Entry P274: cyclic PEGylated VPAC2 receptor peptide agonist (HSDAVFTENYTKL[Aib]KQ[Nle]AAKKYLNDLKQKGGPSSGAPPPC; not fully specified (residue 40); ends and bridges not checked; also: cyclic, bridge type and places not given here, PEGylated, site not placed) [Agonist P274] , IC50 reported as > 3 µM
